Would you mind telling me the reported GI50 of each entry?
system: WM-266-4; experiment: Cell growth inhibition assay (MTS); format: cell-based; details: Homo sapiens; WM-266-4, 72 hours
Give bare numbers, in nM.

Answered examples (2):
structure_notation=O=S(=O)(c1ccc(Cl)cc1)N1CCC(Nc2nccc(-c3c(-c4cccc(O)c4)nc4sccn34)n2)CC1 system=WM-266-4 assay_value=6
structure_notation=Cn1ccc(S(=O)(=O)N2CCC(Nc3nccc(-c4c(-c5cccc(O)c5)nc5occn45)n3)CC2)n1 system=WM-266-4 assay_value=2

Read the next record carefully.
Query :: Entry O=S(=O)(C1CC1)N1CCC(Nc2nccc(-c3c(-c4cccc(O)c4)nc4occn34)n2)CC1 , system WM-266-4: what GI50 was measured?
Result :: 3
